Kindly state Mean % WT Binding for each of the entries shown.
- tgt: human CD33 D95A (human, UniProt P20138 18-364)
- Sequence (P20138 18-364 D95A limits assumed): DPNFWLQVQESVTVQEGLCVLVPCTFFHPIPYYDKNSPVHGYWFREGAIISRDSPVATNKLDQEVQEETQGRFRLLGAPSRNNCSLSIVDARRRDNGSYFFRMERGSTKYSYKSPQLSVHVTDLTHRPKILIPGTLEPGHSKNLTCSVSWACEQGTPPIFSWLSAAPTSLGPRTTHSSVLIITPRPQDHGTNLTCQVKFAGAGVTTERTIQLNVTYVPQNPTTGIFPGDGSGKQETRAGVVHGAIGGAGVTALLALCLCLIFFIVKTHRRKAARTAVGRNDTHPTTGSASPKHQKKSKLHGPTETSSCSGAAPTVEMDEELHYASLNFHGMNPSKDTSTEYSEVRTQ
- protocol: flow cytometry on HEK293-T, alanine scan
Answers are plain numbers, in % WT binding.

The cases that follow already have their Mean % WT Binding on record.
>  <binder>
Refmab #4 (antibody, V domains shown, The alanine scan used IgG or Fab) VH: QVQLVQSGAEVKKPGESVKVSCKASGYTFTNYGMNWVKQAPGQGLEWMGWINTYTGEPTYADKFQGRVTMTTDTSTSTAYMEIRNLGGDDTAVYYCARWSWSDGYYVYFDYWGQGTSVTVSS VL: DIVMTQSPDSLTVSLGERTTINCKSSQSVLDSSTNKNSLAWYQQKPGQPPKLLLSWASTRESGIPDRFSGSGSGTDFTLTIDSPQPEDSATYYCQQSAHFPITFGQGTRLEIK

>  <endpoint_label>
Mean % WT Binding

>  <observed_result>
90.9

$$$$
>  <binder>
Refmab #2 (antibody, V domains shown, The alanine scan used IgG or Fab) VH: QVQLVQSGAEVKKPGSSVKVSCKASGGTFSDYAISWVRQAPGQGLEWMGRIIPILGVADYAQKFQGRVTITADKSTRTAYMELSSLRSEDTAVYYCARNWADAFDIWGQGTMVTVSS VL: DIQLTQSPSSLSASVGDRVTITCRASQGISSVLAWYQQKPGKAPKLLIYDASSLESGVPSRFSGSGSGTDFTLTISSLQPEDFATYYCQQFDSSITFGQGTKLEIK

>  <endpoint_label>
Mean % WT Binding

>  <observed_result>
110

$$$$
>  <binder>
Refmab #1 (antibody, V domains shown, The alanine scan used IgG or Fab; also called hP67.6) VH: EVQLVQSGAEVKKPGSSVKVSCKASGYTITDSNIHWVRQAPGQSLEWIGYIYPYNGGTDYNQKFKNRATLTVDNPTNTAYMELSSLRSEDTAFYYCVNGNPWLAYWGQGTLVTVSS VL: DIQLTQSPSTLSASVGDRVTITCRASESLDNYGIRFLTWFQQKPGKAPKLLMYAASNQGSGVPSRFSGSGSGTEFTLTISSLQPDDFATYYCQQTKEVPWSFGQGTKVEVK

>  <endpoint_label>
Mean % WT Binding

>  <observed_result>
80.5

$$$$

Item Refmab #3 (antibody, V domains shown, The alanine scan used IgG or Fab) VH: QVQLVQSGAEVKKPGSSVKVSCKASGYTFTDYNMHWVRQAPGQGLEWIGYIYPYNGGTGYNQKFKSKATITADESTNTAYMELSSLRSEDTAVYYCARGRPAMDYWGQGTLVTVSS VL: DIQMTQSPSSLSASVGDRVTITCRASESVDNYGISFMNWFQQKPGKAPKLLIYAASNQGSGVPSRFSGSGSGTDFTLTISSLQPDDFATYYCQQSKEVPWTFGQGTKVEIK has what recorded Mean % WT Binding?
103
